A short record of AC50 observed with Histamine H1 receptor (Homo sapiens) follows.
Sequence (P35367 whole entry): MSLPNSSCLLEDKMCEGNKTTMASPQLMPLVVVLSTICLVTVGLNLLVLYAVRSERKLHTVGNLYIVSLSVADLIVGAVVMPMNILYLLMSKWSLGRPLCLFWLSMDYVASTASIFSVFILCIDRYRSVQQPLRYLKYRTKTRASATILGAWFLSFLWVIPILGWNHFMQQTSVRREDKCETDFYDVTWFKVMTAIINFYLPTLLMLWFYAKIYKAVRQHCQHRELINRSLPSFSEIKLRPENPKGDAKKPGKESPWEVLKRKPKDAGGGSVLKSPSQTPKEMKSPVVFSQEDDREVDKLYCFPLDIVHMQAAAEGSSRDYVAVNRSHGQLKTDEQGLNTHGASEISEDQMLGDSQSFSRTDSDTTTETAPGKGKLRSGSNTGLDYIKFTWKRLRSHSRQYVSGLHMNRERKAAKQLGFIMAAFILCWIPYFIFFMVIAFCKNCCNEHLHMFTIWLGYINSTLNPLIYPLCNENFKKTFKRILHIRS

Below, 5 compounds whose answers are already recorded.
compound="Cc1nnc(SCC2=C(C(=O)O)N3C(=O)[C@@H](NC(=O)Cn4cnnn4)[C@H]3SC2)s1 [CEFAZOLIN]" reported_result="> 300 µM"
compound="Cc1onc(-c2c(F)cccc2Cl)c1C(=O)N[C@@H]1C(=O)N2[C@@H]1SC(C)(C)[C@@H]2C(=O)O [FLOXACILLIN]" reported_result="> 30 µM"
compound="OC[C@H]1O[C@@H](n2cnc3c2NC=NC[C@H]3O)C[C@@H]1O [PENTOSTATIN]" reported_result="> 30 µM"
compound="Cc1cccc(C)c1NC(=O)CC12CCCN1CCC2 [PILSICAINIDE]" reported_result="> 30 µM"
compound="Clc1ccc(CCC(Cn2ccnc2)Sc2c(Cl)cccc2Cl)cc1 (centres undefined) [BUTOCONAZOLE]" reported_result="> 30 µM"

Summary line: CO[C@H]1C[C@H](O[C@H]2CC[C@@]3(C)[C@H](CC[C@@H]4[C@@H]3CC[C@]3(C)[C@@H](C5=CC(=O)OC5)[C@@H](OC(C)=O)C[C@]43O)C2)O[C@@H](C)[C@@H]1O [OLEANDRIN] , Histamine H1 receptor (Homo sapiens), reported AC50 = > 30 µM

Item Oc1cc(O)c(Cl)cn1 ; assay system Histamine H1 receptor (Homo sapiens); AC50 reported as > 30 µM

Measured on Histamine H1 receptor (Homo sapiens), CCc1cc2c(s1)-n1c(C)nnc1CN=C2c1ccccc1Cl [ETIZOLAM] has a documented AC50 of > 30 µM

Param item: CCCCCCCN(CC)CCCC(O)c1ccc(NS(C)(=O)=O)cc1 (centres undefined) [IBUTILIDE] ; param system: Histamine H1 receptor (Homo sapiens); output AC50: > 30 µM

Form field AC50 for item CCOC(=O)c1ccc(C#Cc2ccc3c(c2)C(C)(C)CCS3)nc1 [TAZAROTENE] on Histamine H1 receptor (Homo sapiens): > 10 µM
